target: Protein kinase C alpha type (Homo sapiens)
TEST READOUT: Ki (nM)

# MOLECULE, UNIT STRING, QUANTITATIVE RESULT
rows = [
    ("CCCCCCCCCCCCCC[C@@H]1C(=O)O[C@@H](CO)[C@@H]1OC(C)=O", "nM", 600),
]

Origin of measurements: ChEMBL document CHEMBL1126493
